The values you see were collected from ChEMBL document CHEMBL2074333.

molecular target: ATP-dependent translocase ABCB1 (Homo sapiens); assay: TP_TRANSPORTER: drug resistance in KB-VIN10 cells; assay type: functional, cell-based
Sequence (P08183 whole entry): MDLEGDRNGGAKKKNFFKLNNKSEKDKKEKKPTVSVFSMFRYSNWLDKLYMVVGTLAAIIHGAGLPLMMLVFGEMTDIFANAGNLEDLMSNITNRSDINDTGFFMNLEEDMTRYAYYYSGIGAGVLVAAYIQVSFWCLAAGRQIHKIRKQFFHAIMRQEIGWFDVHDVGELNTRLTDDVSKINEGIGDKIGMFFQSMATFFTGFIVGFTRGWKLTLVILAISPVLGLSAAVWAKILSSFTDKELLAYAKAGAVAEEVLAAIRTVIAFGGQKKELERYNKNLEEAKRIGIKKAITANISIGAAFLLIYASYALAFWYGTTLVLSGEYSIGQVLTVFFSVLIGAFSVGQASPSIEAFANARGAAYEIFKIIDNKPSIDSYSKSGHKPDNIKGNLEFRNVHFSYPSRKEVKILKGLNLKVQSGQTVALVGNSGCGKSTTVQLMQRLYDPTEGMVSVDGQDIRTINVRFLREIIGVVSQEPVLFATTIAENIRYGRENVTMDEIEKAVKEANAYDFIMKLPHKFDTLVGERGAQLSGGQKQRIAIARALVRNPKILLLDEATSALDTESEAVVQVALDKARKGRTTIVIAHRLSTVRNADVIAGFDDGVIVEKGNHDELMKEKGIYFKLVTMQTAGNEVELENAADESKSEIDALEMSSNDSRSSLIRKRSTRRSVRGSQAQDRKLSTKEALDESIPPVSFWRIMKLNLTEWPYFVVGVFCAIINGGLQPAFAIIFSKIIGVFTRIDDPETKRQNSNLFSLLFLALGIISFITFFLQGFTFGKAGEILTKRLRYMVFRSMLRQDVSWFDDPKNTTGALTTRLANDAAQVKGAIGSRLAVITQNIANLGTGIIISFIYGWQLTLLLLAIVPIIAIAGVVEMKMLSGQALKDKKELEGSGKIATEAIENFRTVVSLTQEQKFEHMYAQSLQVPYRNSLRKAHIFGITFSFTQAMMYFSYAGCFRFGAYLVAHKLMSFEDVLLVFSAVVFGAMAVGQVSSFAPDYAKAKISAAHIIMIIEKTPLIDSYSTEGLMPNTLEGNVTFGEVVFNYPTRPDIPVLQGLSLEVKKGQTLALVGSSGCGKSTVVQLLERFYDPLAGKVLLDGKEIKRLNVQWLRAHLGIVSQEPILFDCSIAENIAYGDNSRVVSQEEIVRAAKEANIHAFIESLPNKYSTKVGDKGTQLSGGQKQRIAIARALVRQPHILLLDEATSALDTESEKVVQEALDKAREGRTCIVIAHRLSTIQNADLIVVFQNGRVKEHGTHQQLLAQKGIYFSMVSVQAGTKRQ
recordedMetric: Activity

molecule	recordedMetric	dataValue
CC[C@]1(O)C[C@H]2CN(CCc3c([nH]c4ccccc34)[C@@](C(=O)OC)(c3cc4c(cc3OC)N(C=O)[C@H]3[C@@](O)(C(=O)OC)[C@H](OC(C)=O)[C@]5(CC)C=CCN6CC[C@]43[C@@H]65)C2)C1 [VINCRISTINE]	Activity	substrate [+]
COc1cc2c(c(OC)c1OC)-c1ccc(OC)c(=O)cc1[C@@H](NC(C)=O)CC2 [COLCHICINE]	Activity	substrate [+]
CC(=O)O[C@H]1C(=O)[C@@]2(C)[C@H]([C@H](OC(=O)c3ccccc3)[C@]3(O)C[C@H](OC(=O)[C@H](O)[C@@H](NC(=O)c4ccccc4)c4ccccc4)C(C)=C1C3(C)C)[C@]1(OC(C)=O)CO[C@@H]1C[C@@H]2O [PACLITAXEL]	Activity	substrate [+]

* * *

target: UniProt:P08183; experiment: TP_TRANSPORTER: drug resistance in KB-TAX50 cells; assay type: functional, cell-based

molecule	Activity
COc1cc2c(c(OC)c1OC)-c1ccc(OC)c(=O)cc1[C@@H](NC(C)=O)CC2 [COLCHICINE]	substrate [+]
CC[C@]1(O)C[C@H]2CN(CCc3c([nH]c4ccccc34)[C@@](C(=O)OC)(c3cc4c(cc3OC)N(C=O)[C@H]3[C@@](O)(C(=O)OC)[C@H](OC(C)=O)[C@]5(CC)C=CCN6CC[C@]43[C@@H]65)C2)C1 [VINCRISTINE]	substrate [+]
CC(=O)O[C@H]1C(=O)[C@@]2(C)[C@H]([C@H](OC(=O)c3ccccc3)[C@]3(O)C[C@H](OC(=O)[C@H](O)[C@@H](NC(=O)c4ccccc4)c4ccccc4)C(C)=C1C3(C)C)[C@]1(OC(C)=O)CO[C@@H]1C[C@@H]2O [PACLITAXEL]	substrate [+]
